molecular target: purified human Factor XIa (Homo sapiens, UniProt P03951); construct: Determinations were made using purified human Factor XIa; purchased Sekisui Diagnostics; assay: Factor XIa Assay (hydrolysis of fluorogenic substrate Z-Gly-Pro-Arg-AFC); type: biochemical; conditions: purified human Factor XIa 40 pM; Z-Gly-Pro-Arg-AFC 100 μM; 50 mM HEPES pH 7.4; read-out: Factor XIa Inhibition (IC50 (nM))
Sequence (P03951 388-625 limits assumed): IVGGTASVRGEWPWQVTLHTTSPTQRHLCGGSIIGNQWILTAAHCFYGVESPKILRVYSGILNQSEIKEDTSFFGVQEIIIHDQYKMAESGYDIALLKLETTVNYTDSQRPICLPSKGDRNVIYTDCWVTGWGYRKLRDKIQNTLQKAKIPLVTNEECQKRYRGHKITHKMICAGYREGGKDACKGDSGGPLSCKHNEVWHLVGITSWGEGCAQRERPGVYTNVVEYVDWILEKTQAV
Sequence (P03951 19-387 partner limits assumed): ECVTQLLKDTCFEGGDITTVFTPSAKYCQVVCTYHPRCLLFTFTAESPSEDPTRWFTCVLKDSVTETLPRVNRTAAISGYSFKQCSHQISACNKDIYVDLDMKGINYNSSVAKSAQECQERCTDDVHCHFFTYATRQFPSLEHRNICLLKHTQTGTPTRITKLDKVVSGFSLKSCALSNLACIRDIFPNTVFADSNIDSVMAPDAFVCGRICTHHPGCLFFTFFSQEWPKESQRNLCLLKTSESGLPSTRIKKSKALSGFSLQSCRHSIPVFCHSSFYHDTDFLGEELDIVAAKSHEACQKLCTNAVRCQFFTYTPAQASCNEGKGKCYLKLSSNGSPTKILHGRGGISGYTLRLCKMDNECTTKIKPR
Recorded measurements of log10(IC50), one per entry
Use the decimal logarithm of IC50 (nM).

COC(=O)Nc1ccc(-c2c[nH]c(C3C(c4ccc(F)cc4)CC(C4CCNCC4)CN3C(=O)/C=C/c3cc(Cl)ccc3-n3cnnn3)n2)cc1 (stereo not drawn) [Example 27]
2.85
NC1CCN([C@H]2C[C@@H](c3ccc(F)cc3)[C@@H](c3nc(-c4cccnc4)c[nH]3)N(C(=O)/C=C/c3cc(Cl)ccc3-n3cnnn3)C2)CC1 [Example 15]
1.91
COC(=O)Nc1ccc(-c2c[nH]c(C3C(c4ccc(F)cc4)CC(N4CCC(N)CC4)CN3C(=O)/C=C/c3cc(Cl)ccc3-n3cnnn3)n2)cc1 (single isomer, unassigned) [Example 13]
0.23
COC(=O)Nc1ccc(-c2cnc(C3C(c4ccc(F)cc4)CC(N4CCC(N)CC4)CN3C(=O)/C=C/c3c(C(F)(F)F)ccc(Cl)c3F)[nH]2)cc1 (stereo not drawn) [Example 19]
1.83
C[C@@H]1C[C@H](C2CCNCC2)CN(C(=O)/C=C/c2cc(Cl)ccc2-n2cnnn2)[C@@H]1C(=O)Nc1ccc(C(=O)O)cc1 [Example 24]
2.76

Field: next compound
Lab note: COC(=O)Nc1ccc(-c2cnc(C3C(c4ccc(F)cc4)CC(N4CCC(N)CC4)CN3C(=O)/C=C/c3c(C(F)(F)F)ccc(Cl)c3F)[nH]2)cc1 (stereo not drawn) [Example 20] gave log10(IC50) of 2.11
